system: SF-539; test: Cytotoxicity against human SF539 cells; format: functional
GI50 for assorted compounds
Numeric answer plus unit only.

Worked examples, 4 compounds total:
[
  {
    "Chem smiles": "COc1cc(/C=C/c2cc(O)c3c(c2)C[C@@H]2C(C)(C)[C@H](O)CC[C@@]2(C)O3)cc2c1ccn2C",
    "GI50": "1620 nM"
  },
  {
    "Chem smiles": "COc1cc(/C=C/c2cc(O)c3cc[nH]c3c2)cc2c1O[C@]1(C)CC[C@@H](O)C(C)(C)[C@H]1C2",
    "GI50": "257 nM"
  },
  {
    "Chem smiles": "COc1cc(/C=C/c2cc(O)c3c(C/C=C(\\C)CCC=C(C)C)c[nH]c3c2)cc2c1O[C@]1(C)CC[C@@H](O)C(C)(C)[C@H]1C2",
    "GI50": "229 nM"
  },
  {
    "Chem smiles": "COc1cc(/C=C/c2cc(OC)c3c(CC=C(C)C)c[nH]c3c2)cc2c1O[C@]1(C)CC[C@@H](O)C(C)(C)[C@H]1C2",
    "GI50": "50.1 nM"
  }
]

State its GI50 on SF-539: "COc1cc(/C=C/c2cc(O)c3c(c2)C[C@@H]2C(C)(C)[C@H](O)CC[C@@]2(C)O3)cc2[nH]cc(CC=C(C)C)c12"
10 nM

SF-539 / GI50 / "COc1cc(/C=C/c2cc(O)c3c(CC=C(C)C)c[nH]c3c2)cc2c1O[C@]1(C)CC[C@@H](O)C(C)(C)[C@H]1C2" : value?
40.7 nM

So what GI50 did "COc1cc(/C=C/c2cc(OC)c3cc[nH]c3c2)cc2c1O[C@]1(C)CC[C@@H](O)C(C)(C)[C@H]1C2" get with SF-539?
141 nM

Value wanted: GI50 (SF-539) of entry "COc1cc(/C=C/c2cc(OC)c3ccn(C)c3c2)cc2c1O[C@]1(C)CC[C@@H](O)C(C)(C)[C@H]1C2"
214 nM

Lab note: need GI50 with SF-539 for entry "COc1cc(/C=C/c2cc(O)c3cc(CC=C(C)C)[nH]c3c2)cc2c1O[C@]1(C)CC[C@@H](O)C(C)(C)[C@H]1C2" , please look it up.
324 nM

Param readout= GI50; system= SF-539; entry= "COc1cc(/C=C/c2cc(OC)c3c(C/C=C(\C)CCC=C(C)C)c[nH]c3c2)cc2c1O[C@]1(C)CC[C@@H](O)C(C)(C)[C@H]1C2" ; returns value.
148 nM

Missing value: GI50, SF-539, entry "COc1cc(/C=C/c2cc(O)c3ccn(C)c3c2)cc2c1O[C@]1(C)CC[C@@H](O)C(C)(C)[C@H]1C2" . Fill in?
105 nM

# value lookup — system SF-539, readout GI50, item "CC1(C)[C@H](O)CC[C@@]2(C)Oc3c(O)cc(/C=C/c4cc(O)c5cc[nH]c5c4)cc3C[C@H]12"
20.4 nM

###

assay: Cytotoxicity against human UO31 cells; assay type: functional; conditions: UO-31, read-out: pTGI (converted)
In this section, each of the molecules is paired with its reported TGI.
Answer format: numeric, nM implied, no suffix.

Look over these answered cases.
[
  {
    "Chem smiles": "COc1cc(/C=C/c2cc(O)c3c(CC=C(C)C)c[nH]c3c2)cc2c1O[C@]1(C)CC[C@@H](O)C(C)(C)[C@H]1C2",
    "TGI [nM]": 1480
  },
  {
    "Chem smiles": "COc1cc(/C=C/c2cc(O)c3cc(CC=C(C)C)[nH]c3c2)cc2c1O[C@]1(C)CC[C@@H](O)C(C)(C)[C@H]1C2",
    "TGI [nM]": 5890
  },
  {
    "Chem smiles": "CC1(C)[C@H](O)CC[C@@]2(C)Oc3c(O)cc(/C=C/c4cc(O)c5cc[nH]c5c4)cc3C[C@H]12",
    "TGI [nM]": 2000
  },
  {
    "Chem smiles": "COc1cc(/C=C/c2cc(O)c3c(C/C=C(\\C)CCC=C(C)C)c[nH]c3c2)cc2c1O[C@]1(C)CC[C@@H](O)C(C)(C)[C@H]1C2",
    "TGI [nM]": 2950
  }
]

Now consider a different molecule.
Consider the molecule "COc1cc(/C=C/c2cc(OC)c3ccn(C)c3c2)cc2c1O[C@]1(C)CC[C@@H](O)C(C)(C)[C@H]1C2" and give its measured TGI.
3020

###

test system: TK-10; assay: Cytotoxicity against human TK10 cells; format: functional
Readout kind: LC50 (µM)
Write the answer as a number in µM, unit excluded.

[
  {
    "Chem smiles": "COc1cc(/C=C/c2cc(O)c3c(CC=C(C)C)c[nH]c3c2)cc2c1O[C@]1(C)CC[C@@H](O)C(C)(C)[C@H]1C2",
    "Recorded measurement": 50.1
  }
]

Need LC50 of "COc1cc(/C=C/c2cc(O)c3c(c2)C[C@@H]2C(C)(C)[C@H](O)CC[C@@]2(C)O3)cc2[nH]cc(CC=C(C)C)c12" , thanks.
69.2

###

tested on: HL-60(TB); assay: Cytotoxicity against human HL-60(TB) cells; type: functional; conditions: read-out: pTGI (converted)
Each record here notes measured TGI.
Return type: number; implicit unit µM.

[
  {
    "Chem smiles": "COc1cc(/C=C/c2cc(O)c3c(c2)C[C@@H]2C(C)(C)[C@H](O)CC[C@@]2(C)O3)cc2c1ccn2C",
    "Subject of test": "HL-60(TB)",
    "Units text": "µM",
    "TGI": 16.6
  },
  {
    "Chem smiles": "COc1cc(/C=C/c2cc(OC)c3ccn(C)c3c2)cc2c1O[C@]1(C)CC[C@@H](O)C(C)(C)[C@H]1C2",
    "Subject of test": "HL-60(TB)",
    "Units text": "µM",
    "TGI": 38.9
  },
  {
    "Chem smiles": "COc1cc(/C=C/c2cc(O)c3c(C/C=C(\\C)CCC=C(C)C)c[nH]c3c2)cc2c1O[C@]1(C)CC[C@@H](O)C(C)(C)[C@H]1C2",
    "Subject of test": "HL-60(TB)",
    "Units text": "µM",
    "TGI": 12.3
  }
]

Lab note: need TGI with HL-60(TB) for entry "COc1cc(/C=C/c2cc(O)c3c(CC=C(C)C)c[nH]c3c2)cc2c1O[C@]1(C)CC[C@@H](O)C(C)(C)[C@H]1C2" , please look it up.
18.6

Hello, I am looking for reported TGI with HL-60(TB) for "CC1(C)[C@H](O)CC[C@@]2(C)Oc3c(O)cc(/C=C/c4cc(O)c5cc[nH]c5c4)cc3C[C@H]12" . Could you help?
4.79

Any idea what TGI came out for "COc1cc(/C=C/c2cc(O)c3ccn(C)c3c2)cc2c1O[C@]1(C)CC[C@@H](O)C(C)(C)[C@H]1C2" on HL-60(TB)?
58.9

TGI of "COc1cc(/C=C/c2cc(OC)c3c(C/C=C(\C)CCC=C(C)C)c[nH]c3c2)cc2c1O[C@]1(C)CC[C@@H](O)C(C)(C)[C@H]1C2" on HL-60(TB)?
10.5

Find the measured TGI: item "COc1cc(/C=C/c2cc(O)c3cc[nH]c3c2)cc2c1O[C@]1(C)CC[C@@H](O)C(C)(C)[C@H]1C2" , target or system HL-60(TB).
8.71

Recorded TGI for "COc1cc(/C=C/c2cc(OC)c3c(CC=C(C)C)c[nH]c3c2)cc2c1O[C@]1(C)CC[C@@H](O)C(C)(C)[C@H]1C2" with HL-60(TB), please?
2.45

Query for HL-60(TB): what TGI does the record show for "COc1cc(/C=C/c2cc(OC)c3cc[nH]c3c2)cc2c1O[C@]1(C)CC[C@@H](O)C(C)(C)[C@H]1C2" ?
1.32

Look up TGI with HL-60(TB) for this compound: "COc1cc(/C=C/c2cc(O)c3c(c2)C[C@@H]2C(C)(C)[C@H](O)CC[C@@]2(C)O3)cc2[nH]cc(CC=C(C)C)c12"
18.2

###

The molecules listed here are annotated with their TGI.
assay: Cytotoxicity against human OVCAR5 cells; assay type: functional; conditions: OVCAR-5, read-out: pTGI (converted)

// solved cases for TGI follow
[
  {
    "Chem smiles": "COc1cc(/C=C/c2cc(OC)c3cc[nH]c3c2)cc2c1O[C@]1(C)CC[C@@H](O)C(C)(C)[C@H]1C2",
    "Recorded measurement": "6.03 µM"
  },
  {
    "Chem smiles": "COc1cc(/C=C/c2cc(O)c3cc(CC=C(C)C)[nH]c3c2)cc2c1O[C@]1(C)CC[C@@H](O)C(C)(C)[C@H]1C2",
    "Recorded measurement": "> 100 µM"
  },
  {
    "Chem smiles": "COc1cc(/C=C/c2cc(OC)c3c(C/C=C(\\C)CCC=C(C)C)c[nH]c3c2)cc2c1O[C@]1(C)CC[C@@H](O)C(C)(C)[C@H]1C2",
    "Recorded measurement": "14.5 µM"
  }
]

Reported TGI, molecule "COc1cc(/C=C/c2cc(OC)c3c(CC=C(C)C)c[nH]c3c2)cc2c1O[C@]1(C)CC[C@@H](O)C(C)(C)[C@H]1C2" : ____
7.24 µM
